Molecular target: shcis-PT (soluble human cis-prenyltransferase complex, DHDDS-NgBR) (Homo sapiens, UniProt Q86SQ9)
Test: displacement of MANT-O-GPP followed by FRET
Conditions: competition with 10 μM MANT-O-GPP; pH 7.5, 0.5 mM MgCl2, 1 μM enzyme; S1 site
property label: IC50 (µM)
Report the figure in µM without appending any unit label.

Task item: Note IC50 for the compound shown: CC(C)=CCC/C(C)=C/CC/C(C)=C/CO[P@@](=O)(O)OP(=O)(O)O [FPP]
Reply: 10.5

Origin of values: paper PMC9116609
